Provide the reported Tm of each item.
- run description: melting temperature; fluorescence melt of hairpins on a sequencing array, two-state fit, raised by 9.35 °C to match UV melts
- cond: sodium 0.088 M
In your response, the unit should come after the numeric value.

Note to self: Tm recorded for GCGTCCAAACGC ((((....)))) was 51.4 °C

Form field Tm, entry GGGTGCGGAAACGCGTCC ((..(((....)))..)) : 50.9 °C

So, GTGGACGAAAGTCATCAC ((((((....)))..))) ? Its Tm was 36.3 °C

GGCTACGGAAACGTAACC ((.((((....)))).)) has a reported Tm of 42.1 °C

Looking up GTGAGCGAAAGCTTCCAC ((((((....)))..))) , I found its Tm recorded as 28.7 °C

The sequence identified as GAGTTCGGAAACAAACTC (((((.(....).))))) registered its Tm at 34 °C

Per the record, GCCATCGGAAACGATAGC ((.((((....)))).)) has Tm of 45 °C

Reported Tm for GCGACATCGAAAGATCGC (((..(((....)))))) was 45.9 °C

The reported Tm of the sequence GCGCGACGAAAGTCTCGC (((.(((....))).))) was 60.6 °C

Value of measured Tm for the entry GACAAAGGAAACTTTGTC (((((((....))))))) : 53.9 °C

Reported Tm for GCGGCTACCCGC ((((....)))) was 55.7 °C

// Tm value for GAGCGCGGAAACACGCTC (((((.(....).))))) : 56.2 °C

Short answer for GGCTAGGCGAAAGCCGCC (((..(((....)))))) : Tm was 60.8 °C

Recorded Tm (sequence GCTGCACCGAAAGGTAGC (((..(((....)))))) ): 49.2 °C

The value of Tm measured for the sequence GCTCCACGAAAGTGTAGC (((.(((....))).))) turned out to be 49.2 °C

Measured Tm, GTGTACGAAAGTAGCAC ((((((....))).))) : 42.9 °C

For GATCACTGTTGTGATC ((((((....)))))) the sequence record lists Tm as 57.5 °C

Lab note: GACGGTGGAAACACTGTC (((.(((....))).))) gave Tm of 52.1 °C

sequence GGGGCAGGAAACTGTCCC (((.(((....))).))) , Tm observed: 61.3 °C

What the record says about GGGCCACGAAAGTGCCCC (((.(((....))).))) : Tm is 59.3 °C

Reported Tm ( GATCGAAGACTCGATC ((((((....)))))) ) = 48.5 °C

The measured Tm associated with GATCACAGTCGTGATC ((((((....)))))) reads 56.2 °C

Please fill in: Tm reported for GTAACCGCGAAAGCGTAC (((..(((....)))))) = 28.4 °C

Summary for this sequence, GTCCCGGGAAACTGGGAC (((((.(....).))))) : Tm is 60 °C

So, GTGGAGGGAAACCTTCAC (((.(((....))).))) ? Its Tm was 47.3 °C

Record summary for CGAACGGAAACGTTTCG ((((((....))).))) : reported Tm = 46.1 °C

Measured Tm of GCCCTGCGAAAGCGCGGC (((..((....))..))) : 54.5 °C

For record GTCGCTGGAAACGGTGAC (((.(.(....).).))) the listed Tm is 44.2 °C

Field Tm (entry GCGAGCGAAAGCTGGCGC ((((((....)))..))) ) reads 68.7 °C

The sequence GCGTTGCGAAAGCACCGC (((.(((....))).))) showed Tm equal to 59.1 °C

Tm reported for this sequence GCCTGGCCGAAAGGCGGC (((..(((....)))))) : 65.3 °C

Entry GATCAAGGGTTTGATC ((((((....)))))) ; Tm = 43 °C

# sequence GATCACCGGGTGATC ((((((...)))))) ; its Tm = 55 °C

sequence GCCCAGCGAAAGCCGTGC ((.(.((....)).).)) , Tm observed: 27.1 °C

Documented Tm of GAACACGAAAGTGGTTC ((((((....))).))) : 47.1 °C

// recorded Tm for GAGAGGGGAAACCCTCCC (.(((((....))))).) : 41.2 °C

The sequence listed as GCGACGCGAAAGCATAGC ((.(.((....)).).)) shows Tm equal to 62.7 °C

Looking up GGAGTGGAAACACTCC ((((((....)))))) , I found its Tm recorded as 63.2 °C

Memo: GATCATAGGATGATC ((((((...)))))) , reported Tm: 48.3 °C

GET /value?item= GGAAGGAAACTTCC (((((....))))) &field=Tm returns 46 °C

Entry under test: GCCTTGCGAAAGCAGTGC ((..(((....)))..)) . Its Tm was 45.1 °C

For GATCTGTCTCAGATC ((((((...)))))) the sequence record lists Tm as 49.3 °C

# Tm (sequence: GATCTACTTATAGATC ((((((....)))))) ) is 43 °C

Recorded result, GCGGCAGTCCGC ((((....)))) , Tm: 59.7 °C

Per the record, GCGAAGCGAAAGCTGGGC ((..(((....)))..)) has Tm of 43.7 °C

Summary for this sequence, GAGACCGAAAGGTGGCTC ((((((....)))..))) : Tm is 43.4 °C

Consider GCGGACGAAAGTCTCGC ((((((....))).))) . Its measured Tm is 55.2 °C

Form field Tm, entry GTGATCGAAAGATAGCAC ((((((....)))..))) : 28.3 °C

According to the records, this sequence GTTTTTGGAAACGAAAAC (((((.(....).))))) displays Tm of 40.4 °C

The reported Tm of the sequence GCTCTGCGAAAGCCCAGC (((..((....))..))) was 30.5 °C

###

- run description: folding enthalpy; higher = less favourable; fluorescence melt of hairpins on a sequencing array, two-state fit
- cond: sodium 0.088 M
Mark NO for folding enthalpy values under -30 kcal/mol, and YES for everything at or above.

Quick check, folding enthalpy >= -30 kcal/mol? GAATGTGGAAACGCATTC (((((.(....).)))))
NO

Confirm if folding enthalpy reported for the sequence GTGGGTCCGAAAGGACAC (((..(((....)))))) is -30 kcal/mol or above.
YES

Check the entry GCGGCGTCCGC ((((...)))) : does folding enthalpy equal or exceed -30 kcal/mol?
YES

Is folding enthalpy for GCCAACCCGAAAGGGGGC (((..(((....)))))) at or above -30 kcal/mol?
YES

Identify whether the reported folding enthalpy of the following sequence is -30 kcal/mol or greater: GATCGAGAGCTCGATC ((((((....))))))
NO

Kindly determine if folding enthalpy recorded for GAGACCCCGAAAGGGCTC (((..(((....)))))) is above or exactly -30 kcal/mol.
YES

Hi team, for GCGTAGCGAAAGCAATGC ((.(.((....)).).)) , is the recorded folding enthalpy at or above -30 kcal/mol?
YES

Decide: folding enthalpy of GATCCGAACCCGGATC ((((((....)))))) >= -30 kcal/mol?
NO

Say whether GAGACGCGAAAGCGACTC (((.(((....))).))) shows folding enthalpy of -30 kcal/mol or more.
YES

Is the recorded value of folding enthalpy equal to or greater than -30 kcal/mol for this sequence? GTAAACGAAAGTTACTAC ((((((....)))..)))
YES

Does folding enthalpy meet or surpass -30 kcal/mol for GTAGGCGAAAGCCCTTAC ((((((....)))..))) ?
YES

Entry GACGGTGGAAACACCATC ((.((((....)))).)) : is its folding enthalpy no less than -30 kcal/mol?
YES

Check if folding enthalpy >= -30 kcal/mol (inclusive). Item: GTATATGAAAATATAC ((((((....))))))
YES

For this sequence, is measured folding enthalpy -30 kcal/mol or higher? GCAAAGCGAAAGCAGTGC (((..((....))..)))
YES

Please indicate if the recorded folding enthalpy for GATCGATTCGTCGATC ((((((....)))))) meets or exceeds -30 kcal/mol.
NO

Reported folding enthalpy at or above -30 kcal/mol? GATGGCGAAAGCCGAATC ((((((....)))..)))
YES

Determine whether this sequence has folding enthalpy no lower than -30 kcal/mol: GTGCTTCGAAAGAATCAC (((.(((....))).)))
NO

Does the sequence GTAGTTGGAAACAATTAC (((.(((....))).))) have recorded folding enthalpy that is -30 kcal/mol or more?
YES

Is the recorded value of folding enthalpy equal to or greater than -30 kcal/mol for this sequence? GATCGTAGTGACGATC ((((((....))))))
NO

Textbook exercise: given the entry GCTAGTGGAAACATTAGC ((((.((....)).)))) , state whether its folding enthalpy is greater than or equal to -30 kcal/mol.
YES

For this sequence, is measured folding enthalpy -30 kcal/mol or higher? GCCATGCGAAAGCATCGC ((.((((....)))).))
YES

# check: folding enthalpy of GCACGCGAAAGCGAATGC ((((((....)))..))) is greater than or equal to -30 kcal/mol
YES

Form field: folding enthalpy at least -30 kcal/mol? Entry: GACTGCGAAAGCACTGTC ((((((....)))..)))
YES

Please check the record GCGTGATACGC ((((...)))) and state if its folding enthalpy is at or above -30 kcal/mol.
YES
